Provenance of the data: patent US8193191B2

- target_or_system: Human UII receptor, 6D9 human rhabdomyosarcoma cells (Homo sapiens)
- Construct: 6D9: isolated by dilution subcloning of RMS13 cells, ATCC® Number: CRL-2061
- Sequence (Q9UKP6 whole entry): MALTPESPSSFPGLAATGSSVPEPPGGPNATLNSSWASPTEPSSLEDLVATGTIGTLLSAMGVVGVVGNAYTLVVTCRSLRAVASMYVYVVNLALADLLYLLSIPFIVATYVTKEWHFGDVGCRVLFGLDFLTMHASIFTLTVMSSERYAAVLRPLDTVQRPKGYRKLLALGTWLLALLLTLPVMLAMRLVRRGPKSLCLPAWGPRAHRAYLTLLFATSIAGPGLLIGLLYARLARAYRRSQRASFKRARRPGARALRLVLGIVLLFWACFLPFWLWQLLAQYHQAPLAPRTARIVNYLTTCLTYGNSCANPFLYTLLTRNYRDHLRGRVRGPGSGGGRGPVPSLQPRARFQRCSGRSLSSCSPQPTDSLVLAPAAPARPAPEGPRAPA
- experimental_details: Human UII Calcium Mobilization Assay
- assay_conditions: average value, FLIPR TETRA, read-out: Human UII Ca^+ Mobilization Average IC50
pIC50: −log10 of the molar value.
assay_metric: pIC50

Sample records with pIC50:
compound: COc1ccc(CC(c2ccc(OC)c(OC)c2)N2C(=O)c3cccc(N4CCN([C@H](C)c5ccccc5)CC4)c3C2=O)cc1OC (stereo partly shown)
test_value: 5.51
//
compound: COc1ccc([C@@H](CCCNS(=O)(=O)c2cccs2)N2C(=O)c3cccc(N4CCN(C)CC4)c3C2=O)cc1OC
test_value: 6.66
//
compound: CCOCCC[C@H](c1ccc(OC)c(OC)c1)N1C(=O)c2cccc(N3CCN(CC)CC3)c2C1=O
test_value: 5.85

P = COc1ccc([C@@H](CCCNC(=O)c2cc(C)c(C)o2)N2C(=O)c3cccc(N4CCN([C@H](C)c5ccccc5)CC4)c3C2=O)cc1OC
Q = COc1ccc(C(CCCNS(=O)(=O)c2ccsc2)N2C(=O)c3cccc(N4CCN([C@H](C)c5ccccc5)CC4)c3C2=O)cc1OC (stereo partly shown)
// compare measured pIC50, left P , right Q , return larger // caller expects the label of the chosen entry
Q
